Documented log10(Kb) across a set of compounds
- target.or.system: CB1 (Homo sapiens)
- Sequence (P21554 whole entry): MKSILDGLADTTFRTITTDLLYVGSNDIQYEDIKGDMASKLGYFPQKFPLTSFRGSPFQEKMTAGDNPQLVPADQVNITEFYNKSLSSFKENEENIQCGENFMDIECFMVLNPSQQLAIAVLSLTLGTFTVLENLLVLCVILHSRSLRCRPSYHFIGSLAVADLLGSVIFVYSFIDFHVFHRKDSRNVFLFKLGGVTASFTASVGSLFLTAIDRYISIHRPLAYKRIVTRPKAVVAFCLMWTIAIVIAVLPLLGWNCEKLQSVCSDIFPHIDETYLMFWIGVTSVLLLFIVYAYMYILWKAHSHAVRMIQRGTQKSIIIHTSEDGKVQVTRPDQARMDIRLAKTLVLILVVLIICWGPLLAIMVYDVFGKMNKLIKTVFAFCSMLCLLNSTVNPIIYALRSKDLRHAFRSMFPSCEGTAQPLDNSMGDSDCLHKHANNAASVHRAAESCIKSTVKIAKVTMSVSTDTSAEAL
- protocol.details: CB1 Gαq16-coupled intracellular calcium mobilization assay in CHO-K1 cells
- Type: cell-based
A value of 2 here means Kb of 100 in nM, since values are log10.

                                   compound  experimental_value
0  Cc1c(C(=O)NC2CCNCC2)nn(-c2ccc(Cl)cc2Cl)c1-c1ccc(Cl)cc1 [Compound 18b]                3.71
1  CCNC(=O)NCC1CCC(CNC(=O)c2nn(-c3ccc(Cl)cc3Cl)c(-c3ccc(Cl)cc3)c2C)CC1 (stereo not drawn) [Compound 21a]                2.13

Just so you know, measured log10(Kb) for Cc1c(C(=O)N[C@H]2CCCN(C(=O)NC(C)C)C2)nn(-c2ccc(Cl)cc2Cl)c1-c1ccc(Cl)cc1 [Compound 19f] came out at 2.42

# log10(Kb) of CCCCNC(=O)NCC1CCC(CNC(=O)c2nn(-c3ccc(Cl)cc3Cl)c(-c3ccc(Cl)cc3)c2C)CC1 (stereo not drawn) [Compound 21d] = 2.44

Measured log10(Kb) of Cc1c(C(=O)NCC2CCC(CNC(=O)NC(C)(C)C)CC2)nn(-c2ccc(Cl)cc2Cl)c1-c1ccc(Cl)cc1 (stereo not drawn) [Compound 21e] : 2.18
